Biological target: UniProt P23977
Assay: In vitro inhibition of dopamine uptake in rat tissue, was determined using [3H]DAU as radioligand
// NB: equality with 0.2 µM counts as -1; only IC50 strictly below is 1

1) O=CN1C2CCC1CC(OC(c1ccc(F)cc1)c1ccc(F)cc1)C2 (stereo unspecified)    -1
2) Fc1ccc(C(OC2CC3CCC(C2)N3Cc2ccccc2)c2ccc(F)cc2)cc1 (stereo unspecified)    -1
3) C=CCN1C2CCC1CC(OC(c1ccc(F)cc1)c1ccc(F)cc1)C2 (stereo unspecified)    1
4) CC(=O)N1C2CCC1CC(OC(c1ccc(F)cc1)c1ccc(F)cc1)C2 (stereo unspecified)    -1
5) Fc1ccc(C(OC2CC3CCC(C2)N3CCCc2ccccc2)c2ccc(F)cc2)cc1 (stereo unspecified)    -1
6) Fc1ccc(C(OC2CC3CCC(C2)N3)c2ccc(F)cc2)cc1 (stereo unspecified)    1
7) C[N+]1(C)[C@@H]2CC[C@H]1C[C@@H](OC(c1ccc(F)cc1)c1ccc(F)cc1)C2    1
8) CCCCN1C2CCC1CC(OC(c1ccc(F)cc1)c1ccc(F)cc1)C2 (stereo unspecified)    -1
9) Fc1ccc(C(OC2CC3CCC(C2)N3CC2CC2)c2ccc(F)cc2)cc1 (stereo unspecified)    1

Regarding O=[N+]([O-])c1ccc(CCCCN2[C@@H]3CC[C@H]2C[C@@H](OC(c2ccc(F)cc2)c2ccc(F)cc2)C3)cc1 , kindly confirm whether its IC50 is beneath 0.2 µM.
-1

* * *

Target: Sodium-dependent dopamine transporter (Rattus norvegicus)
assay metric: Ki (nM)
Answer format: numeric, nM implied, no suffix.

Answered cases to consult:
1) CCCCN1C2CCC1CC(OC(c1ccc(F)cc1)c1ccc(F)cc1)C2 (centres undefined)    24.6
2) O=[N+]([O-])c1ccc(-c2ccc(COCCN3C4CCC3CC(OC(c3ccc(F)cc3)c3ccc(F)cc3)C4)cc2)cc1 (centres undefined)    57
3) Fc1ccc(CCCN2C3CCC2CC(OC(c2ccc(F)cc2)c2ccc(F)cc2)C3)cc1 (centres undefined)    60.7
4) Fc1ccc(C(OCCN2C3CCC2CC(OC(c2ccc(F)cc2)c2ccc(F)cc2)C3)c2ccc(F)cc2)cc1 (centres undefined)    634
5) O=CN1C2CCC1CC(OC(c1ccc(F)cc1)c1ccc(F)cc1)C2 (centres undefined)    2020

Identify measured Ki associated with Fc1ccc(C(OC2CC3CCC(C2)N3CCCc2ccccc2)c2ccc(F)cc2)cc1 (centres undefined)
41.9

Assign Ki to the following record: CC(=O)N1C2CCC1CC(OC(c1ccc(F)cc1)c1ccc(F)cc1)C2 (centres undefined)
2340

For the compound O=[N+]([O-])c1ccc(CCCCN2[C@@H]3CC[C@H]2C[C@@H](OC(c2ccc(F)cc2)c2ccc(F)cc2)C3)cc1 , report Ki.
20.2

Tell me measured Ki for Fc1ccc(C(OC2CC3CCC(C2)N3CC2CC2)c2ccc(F)cc2)cc1 (centres undefined) please.
32.4

Read off the recorded Ki for Fc1ccc(CN2C3CCC2CC(OC(c2ccc(F)cc2)c2ccc(F)cc2)C3)cc1 (centres undefined)
95.6

* * *

Biological target: Sodium-dependent noradrenaline transporter (Homo sapiens, UniProt P23975)
Sequence (P23975 whole entry): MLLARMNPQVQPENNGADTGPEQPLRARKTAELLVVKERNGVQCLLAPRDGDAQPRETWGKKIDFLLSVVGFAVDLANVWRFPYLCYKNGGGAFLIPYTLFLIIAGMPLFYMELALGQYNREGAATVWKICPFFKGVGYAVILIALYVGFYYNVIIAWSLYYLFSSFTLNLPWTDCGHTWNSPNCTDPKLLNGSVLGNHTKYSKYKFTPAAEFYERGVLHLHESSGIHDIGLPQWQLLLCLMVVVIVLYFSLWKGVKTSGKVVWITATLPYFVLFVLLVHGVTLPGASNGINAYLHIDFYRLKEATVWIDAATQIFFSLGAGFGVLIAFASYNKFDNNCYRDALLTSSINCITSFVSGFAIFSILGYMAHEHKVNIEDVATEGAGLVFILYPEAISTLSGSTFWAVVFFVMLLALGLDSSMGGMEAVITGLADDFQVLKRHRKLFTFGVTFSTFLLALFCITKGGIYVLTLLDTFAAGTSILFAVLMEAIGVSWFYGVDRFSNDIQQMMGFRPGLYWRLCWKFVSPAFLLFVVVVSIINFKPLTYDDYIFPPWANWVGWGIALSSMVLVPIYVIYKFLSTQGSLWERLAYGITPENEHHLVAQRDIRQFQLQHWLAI
Experiment: Compound was evaluated for binding to Norepinephrine Transporter (NET) using [3H]desmethylimipramine as radioligand
assay metric: pKi
Note on units: pKi is unitless, being -log10 of a concentration expressed in mol/L.

These solved cases illustrate the format of a correct answer.
1) Fc1ccc(C(OC2CC3CCC(C2)N3CCCc2ccccc2)c2ccc(F)cc2)cc1 (stereo unspecified)    5.45
2) Fc1ccc(C(OC2CC3CCC(C2)N3CC2CC2)c2ccc(F)cc2)cc1 (stereo unspecified)    5.32
3) CCCCN1C2CCC1CC(OC(c1ccc(F)cc1)c1ccc(F)cc1)C2 (stereo unspecified)    5.88

Quote pKi reported for C=CCN1C2CCC1CC(OC(c1ccc(F)cc1)c1ccc(F)cc1)C2 (stereo unspecified) please.
5.23

Give reported pKi value for Fc1ccc(C(OC2CC3CCC(C2)N3Cc2ccccc2)c2ccc(F)cc2)cc1 (stereo unspecified)
5.68

* * *

Ki tested on Sodium-dependent dopamine transporter (Rattus norvegicus, UniProt P23977): recorded values
Sequence (P23977 whole entry): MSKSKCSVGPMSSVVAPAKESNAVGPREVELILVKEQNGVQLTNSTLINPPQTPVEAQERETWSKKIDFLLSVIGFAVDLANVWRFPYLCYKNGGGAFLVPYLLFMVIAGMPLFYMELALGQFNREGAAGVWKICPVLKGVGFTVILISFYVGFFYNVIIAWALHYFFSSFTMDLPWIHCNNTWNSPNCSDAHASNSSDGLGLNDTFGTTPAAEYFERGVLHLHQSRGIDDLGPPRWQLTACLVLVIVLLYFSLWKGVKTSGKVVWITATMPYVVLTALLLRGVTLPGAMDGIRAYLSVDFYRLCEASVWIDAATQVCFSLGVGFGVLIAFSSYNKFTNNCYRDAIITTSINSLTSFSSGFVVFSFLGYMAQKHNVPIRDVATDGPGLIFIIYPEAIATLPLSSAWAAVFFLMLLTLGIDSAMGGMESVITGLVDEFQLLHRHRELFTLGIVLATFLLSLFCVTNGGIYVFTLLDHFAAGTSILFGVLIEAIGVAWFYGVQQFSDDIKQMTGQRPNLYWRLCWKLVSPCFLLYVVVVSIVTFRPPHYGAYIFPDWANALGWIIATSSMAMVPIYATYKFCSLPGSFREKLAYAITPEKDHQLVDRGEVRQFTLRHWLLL

1) Fc1ccc(C(OC2CC3CCC(C2)N3)c2ccc(F)cc2)cc1 (centres undefined)    11.2 nM
2) Fc1ccc(C(OC2CC3CCC(C2)N3Cc2ccccc2)c2ccc(F)cc2)cc1 (centres undefined)    82.2 nM
3) C[N+]1(C)[C@@H]2CC[C@H]1C[C@@H](OC(c1ccc(F)cc1)c1ccc(F)cc1)C2    108 nM

Answer with reported Ki of C=CCN1C2CCC1CC(OC(c1ccc(F)cc1)c1ccc(F)cc1)C2 (centres undefined)
29.9 nM

Data origin, for the record: ChEMBL document CHEMBL1130275
